meta.source: ChEMBL document CHEMBL1149970

Molecular target: Dipeptidase 1 (Sus scrofa) (UniProt P22412)
Sequence (P22412 whole entry): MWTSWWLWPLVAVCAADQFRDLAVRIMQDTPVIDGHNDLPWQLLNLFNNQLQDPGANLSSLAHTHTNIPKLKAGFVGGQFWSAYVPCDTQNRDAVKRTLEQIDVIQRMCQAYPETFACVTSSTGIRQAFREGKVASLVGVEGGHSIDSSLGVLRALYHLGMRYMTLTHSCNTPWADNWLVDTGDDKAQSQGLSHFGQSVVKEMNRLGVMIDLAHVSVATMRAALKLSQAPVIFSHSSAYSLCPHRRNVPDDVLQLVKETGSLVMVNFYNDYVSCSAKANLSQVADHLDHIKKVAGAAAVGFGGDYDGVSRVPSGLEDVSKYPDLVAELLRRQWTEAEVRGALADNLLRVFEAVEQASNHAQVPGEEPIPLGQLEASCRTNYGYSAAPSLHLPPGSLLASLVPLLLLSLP
Assay: Compound was measured for DHP-I susceptibility
Type: functional
Lab note - cut at 3 for DHP-I susceptibility: y if strictly below, n if not.

* C[C@@H](O)[C@H]1C(=O)N2C(C(=O)O)=C(SC(=S)N(C)C)[C@H](C)[C@H]12 | y
* C[C@@H](O)[C@H]1C(=O)N2C(C(=O)O)=C(SC(=S)N(C)CCO)[C@H](C)[C@H]12 | y
* C[C@@H](O)[C@H]1C(=O)N2C(C(=O)O)=C(SC(=S)N3CCCC(O)CC3)[C@H](C)[C@H]12 (stereo partly specified) | y
* C[C@@H](O)[C@H]1C(=O)N2C(C(=O)[O-])=C(SC(=S)N3CC[N+](C)(Cc4ccccc4)CC3)[C@H](C)[C@H]12 | y

API: query returns whether the compound falls strictly under 3 in DHP-I susceptibility. Query: `C[C@@H](O)[C@H]1C(=O)N2C(C(=O)O)=C(SC(=S)N(C)Cc3cccc4ccccc34)[C@H](C)[C@H]12`
n

Item `C[C@@H](O)[C@H]1C(=O)N2C(C(=O)O)=C(SC(=S)N3CCCC3)[C@H](C)[C@H]12` : DHP-I susceptibility beneath 3, strictly?
n
